Source of measurements: patent US9187525B2

tgt: T1, natriuretic peptide receptor-B (human)
T1 chain: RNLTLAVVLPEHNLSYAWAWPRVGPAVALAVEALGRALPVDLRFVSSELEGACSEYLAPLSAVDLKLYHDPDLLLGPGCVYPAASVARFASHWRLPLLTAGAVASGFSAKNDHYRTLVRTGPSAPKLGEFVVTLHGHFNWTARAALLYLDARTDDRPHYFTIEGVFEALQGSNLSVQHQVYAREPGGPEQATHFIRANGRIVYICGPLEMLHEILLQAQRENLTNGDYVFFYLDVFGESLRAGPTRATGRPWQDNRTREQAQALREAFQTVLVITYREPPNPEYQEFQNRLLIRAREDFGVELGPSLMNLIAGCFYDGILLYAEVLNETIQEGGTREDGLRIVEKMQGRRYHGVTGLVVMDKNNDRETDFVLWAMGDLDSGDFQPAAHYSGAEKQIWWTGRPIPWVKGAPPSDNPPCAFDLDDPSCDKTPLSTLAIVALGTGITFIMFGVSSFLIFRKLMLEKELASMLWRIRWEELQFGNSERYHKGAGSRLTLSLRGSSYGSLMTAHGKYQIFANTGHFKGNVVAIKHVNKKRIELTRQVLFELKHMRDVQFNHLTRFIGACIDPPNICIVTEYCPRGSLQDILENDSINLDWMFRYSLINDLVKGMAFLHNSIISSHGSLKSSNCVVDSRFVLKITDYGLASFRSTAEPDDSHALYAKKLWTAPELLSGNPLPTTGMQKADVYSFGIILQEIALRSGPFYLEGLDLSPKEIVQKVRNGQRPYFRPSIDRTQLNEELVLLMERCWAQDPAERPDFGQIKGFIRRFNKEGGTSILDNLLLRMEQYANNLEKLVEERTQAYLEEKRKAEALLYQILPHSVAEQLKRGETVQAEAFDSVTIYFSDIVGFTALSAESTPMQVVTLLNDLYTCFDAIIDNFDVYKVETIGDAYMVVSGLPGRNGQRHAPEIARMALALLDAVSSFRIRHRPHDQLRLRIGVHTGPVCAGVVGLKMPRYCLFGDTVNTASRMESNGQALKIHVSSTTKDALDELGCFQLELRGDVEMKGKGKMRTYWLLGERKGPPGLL
experiment-description: cell-based or functional assay
Numbered stars: 1 amine (or outer) side, 2 acyl side, 3 side chain; on linkers, the order of the positions; unused ones are H or OH. Square brackets hold non-standard residues; d marks the D form. Ends that are not written are not given here. * marks the point of attachment. Sni = (S)-nipecotic acid, O=C([C@H]1CCCN([*:1])C1)[*:2]; Hyp = O=C(O)[C@@H]1C[C@@H](O)CN1; NMeL = CN[C@@H](CC(C)C)C(=O)O; AR‑201‑49 = not defined here; lys(Me2) = not defined here; Octanoyl = CCCCCCCC(=O)*; Orn = NCCC[C@H](N)C(=O)O; Nva = CCC[C@H](N)C(=O)O; Che = not defined here; Occ = octanoic acid
endpoint-name: EC50 group, cGMP in GTM-3 cells

binder	result
[Occ][dA]F[dL]L[Hyp][NMeL]D[Orn]I-NH2 [JAL-1328]	≤ 5000 nM
[AR‑201‑49]F[dL]L[Hyp][NMeL]DRI-NH2 (reading uncertain; also: printed as (AR-201-49)-Phe-leu-Leu-Hyp-Nml-Asp-Arg-Ile-NH2) [JAL-1294]	≤ 1000 nM
Octanoyl-[Sni]F[lys(Me2)]L[Hyp][NMeL]DR[Che] (reading uncertain; also: printed as Occ-Sni-Phe-lys(Me2)-Leu-Hyp-Nml-Asp-Arg-Che) [JAL-1777]	≤ 1000 nM
Octanoyl-AFR[Nva][Hyp][NMeL]DRI-NH2 (not fully specified (some residues); printed as Occ-ala-Phe-arg-Nva-Hyp-Nml-Asp-Arg-Ile-NH2) [JAL-1232]	≤ 5000 nM
